fold binding to target pHLA over minipool of negative control pHLAs values by entry
# tested-on: HLA-A*01:01_… (HLA-PEPTIDE target G10), recombinant soluble complex (human, UniProt P04439-2 25-297; P61769 21-119, enzymatically biotinylated (BirA) for screening and functional assays)
# test-protocol: scFv PPE ELISA

- binder: "scFv R3G10-P1H01 (scFv, V domains shown) VH: QVQLVQSGAEVKKPGASVKVSCKASGYTFTGYYMHWVRQAPGQGLEWMGMIGPSDGSTSYAQKFQGRVTMTRDTSTSTVYMELSSLRSEDTAVYYCARGVGNLDYWGQGTLVTVSS VL: DIQMTQSPSSLSASVGDRVTITCRASQSISNYLNWYQQKPGKAPKLLIYAASSLQSGVPSRFSGSGSGTDFTLTISSLQPEDFATYYCHQTYSTPLTFGQGTKVEIK"
  result: "≥ 3 fold"
- binder: "scFv R3G10-P4E12 (scFv, V domains shown) VH: QVQLVQSGAEVKKPGASVKVSCKASGYTFTGYYMHWVRQAPGQGLEWMGMIGPSDGSTSYAQRFQGRVTMTRDTSTSTVYMELSSLRSEDTAVYYCAREEDGMDVWGQGTTVTVSS VL: DIQMTQSPSSLSASVGDRVTITCRASQGISTYLAWYQQKPGKAPKLLIYDASSLQSGVPSRFSGSGSGTDFTLTISSLQPEDFATYYCQQYYSYPWTFGQGTRLEIK"
  result: "≥ 3 fold"

Then this binder:
input: Entry under review: scFv R3G10-P2G11 (scFv, V domains shown) VH: QVQLVQSGAEVKKPGASVKVSCKASGGTFSTHDINWVRQAPGQGLEWMGVINPSGGSAIYAQKFQGRVTMTRDTSTSTVYMELSSLRSEDTAVYYCARDRGYSYGYFDYWGQGTLVTVSS VL: DIQMTQSPSSLSASVGDRVTITCRASQDISRYLAWYQQKPGKAPKLLIYDASNLETGVPSRFSGSGSGTDFTLTISSLQPEDFATYYCQQANSFPRTFGQGTKVEIK . Reported fold binding to target pHLA over minipool of negative control pHLAs?
output: ≥ 3 fold
